# ASSAY_INFO: Half life of hydrolysis in deuterated phosphate buffer at pD 7.8
# CONDITION_SET: buffer, pH 7.8
READOUT_LABEL: half-life

* Cn1nnc2c(C(N)=O)ncn2c1=O [TEMOZOLOMIDE] | 25 min

----------
Form field: Activity (one value per entry).
# Tested on: MCF7
# ASSAY_INFO: Antitumor activity against human MCF7 cells at 100 uM relative to control
# Format: functional
READOUT_LABEL: Activity (%)

* CN(/N=N/c1nc(OCc2ccccc2)c2nc[nH]c2n1)C(=O)Oc1ccccc1 | 107
* CC(=O)N(C)/N=N/c1nc(OCc2ccccc2)c2nc[nH]c2n1 | 99
* CCOC(=O)N(C)/N=N/c1nc(OCc2ccccc2)c2nc[nH]c2n1 | 103
* CN(/N=N/c1nc(OCc2ccccc2)c2nc[nH]c2n1)C(=O)c1ccccc1 | 107
* CN(/N=N/c1nc(OCc2ccccc2)c2nc[nH]c2n1)C(=O)N(C)/N=N/c1nc(OCc2ccccc2)c2nc[nH]c2n1 | 74

These measurements were taken from ChEMBL document CHEMBL1149311.
